Below, each entry is listed alongside its reported IC50.
Molecular target: Sentrin-specific protease 7 (Homo sapiens);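 further: Luminescence-based dose-response confirmation of ultra-high-throughput screening hits, measuring inhibition of SENP7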
Format: functional
The source made the active and inactive calls.

smi | IC50
CCOc1ccccc1NC(=O)Nc1ccc2c(c1)CCC2 | 5.64 µM (active)
COc1ccc(/C(C)=N/OCC(=O)Nc2nc3ccccc3s2)cc1OC | 9.91 µM (active)
Cc1ccc(-c2cc(-c3ccccc3)no2)cc1 | 14.3 µM (active)
CCOC(=O)Nc1ccc(C(=O)Oc2ccccc2)c(O)c1 | 11.6 µM (active)
COc1cc([N+](=O)[O-])ccc1N/C=C/C(=O)c1cccs1 | 0.863 µM (active)
CSc1ccccc1NC(=O)c1cc(C2CC2)on1 | 10.1 µM (active)

----------
Biological target: Aminopeptidase N (Plasmodium falciparum FcB1/Columbia, UniProt O96935)
Test: P. falciparum M1AAP inhibitors, biochemical, fluorogenic H-Leu-NHMec substrate, 1536-well (AID 1445)
Design: species or system Plasmodium falciparum 3D7, 3D7
Active and inactive are the calls of the source.

compound | IC50
CCCN(CCC)CCCNC(=O)c1cc2cc3ccc(OC)cc3nc2o1 | 45.9 µM (active)
O=C(CN1CCC(NC(=O)c2ccccc2F)CC1)Nc1ccc2c(c1)OCO2 | 34 µM (active)
Cc1cccc(-c2nc3ccccc3c(=O)n2NC(=O)c2cccs2)c1 | 44.1 µM (active)
O=C(CN1CC(c2ccccc2)CC1=O)N/N=C/c1cc(Br)ccc1O (configuration not stated) | 11.8 µM (active)
Cc1ccc2nc3c(nc2c1C)C(O)=C3O | 48.5 µM (active)
Nc1ccc(-c2nc3ccc(C(=O)O)cc3s2)cc1 | 25.7 µM (active)
COc1cc(/C=C/C(=O)O)cc(S(=O)(=O)Nc2ccc3nc(SC)sc3c2)c1OC | 66.4 µM (active)

----------
Biological target: Peroxisome proliferator-activated receptor gamma/Nuclear receptor coactivator 2 (Homo sapiens);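 further: agonist potency for raising coactivator recruitment to the receptor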
Sequence (P37231 whole entry): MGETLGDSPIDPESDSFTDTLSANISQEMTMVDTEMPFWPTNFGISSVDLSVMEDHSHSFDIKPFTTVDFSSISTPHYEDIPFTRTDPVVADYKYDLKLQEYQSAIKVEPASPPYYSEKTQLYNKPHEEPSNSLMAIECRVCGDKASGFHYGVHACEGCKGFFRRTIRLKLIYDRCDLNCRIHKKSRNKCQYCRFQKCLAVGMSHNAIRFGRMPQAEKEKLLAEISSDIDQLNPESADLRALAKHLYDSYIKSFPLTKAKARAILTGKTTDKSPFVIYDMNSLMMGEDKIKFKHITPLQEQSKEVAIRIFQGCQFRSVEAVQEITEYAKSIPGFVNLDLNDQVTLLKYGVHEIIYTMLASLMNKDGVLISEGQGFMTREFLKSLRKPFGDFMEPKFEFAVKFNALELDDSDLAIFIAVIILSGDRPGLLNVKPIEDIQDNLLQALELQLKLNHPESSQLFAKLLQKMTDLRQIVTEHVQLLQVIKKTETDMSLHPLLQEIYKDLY
Sequence (Q15596 whole entry, further chain): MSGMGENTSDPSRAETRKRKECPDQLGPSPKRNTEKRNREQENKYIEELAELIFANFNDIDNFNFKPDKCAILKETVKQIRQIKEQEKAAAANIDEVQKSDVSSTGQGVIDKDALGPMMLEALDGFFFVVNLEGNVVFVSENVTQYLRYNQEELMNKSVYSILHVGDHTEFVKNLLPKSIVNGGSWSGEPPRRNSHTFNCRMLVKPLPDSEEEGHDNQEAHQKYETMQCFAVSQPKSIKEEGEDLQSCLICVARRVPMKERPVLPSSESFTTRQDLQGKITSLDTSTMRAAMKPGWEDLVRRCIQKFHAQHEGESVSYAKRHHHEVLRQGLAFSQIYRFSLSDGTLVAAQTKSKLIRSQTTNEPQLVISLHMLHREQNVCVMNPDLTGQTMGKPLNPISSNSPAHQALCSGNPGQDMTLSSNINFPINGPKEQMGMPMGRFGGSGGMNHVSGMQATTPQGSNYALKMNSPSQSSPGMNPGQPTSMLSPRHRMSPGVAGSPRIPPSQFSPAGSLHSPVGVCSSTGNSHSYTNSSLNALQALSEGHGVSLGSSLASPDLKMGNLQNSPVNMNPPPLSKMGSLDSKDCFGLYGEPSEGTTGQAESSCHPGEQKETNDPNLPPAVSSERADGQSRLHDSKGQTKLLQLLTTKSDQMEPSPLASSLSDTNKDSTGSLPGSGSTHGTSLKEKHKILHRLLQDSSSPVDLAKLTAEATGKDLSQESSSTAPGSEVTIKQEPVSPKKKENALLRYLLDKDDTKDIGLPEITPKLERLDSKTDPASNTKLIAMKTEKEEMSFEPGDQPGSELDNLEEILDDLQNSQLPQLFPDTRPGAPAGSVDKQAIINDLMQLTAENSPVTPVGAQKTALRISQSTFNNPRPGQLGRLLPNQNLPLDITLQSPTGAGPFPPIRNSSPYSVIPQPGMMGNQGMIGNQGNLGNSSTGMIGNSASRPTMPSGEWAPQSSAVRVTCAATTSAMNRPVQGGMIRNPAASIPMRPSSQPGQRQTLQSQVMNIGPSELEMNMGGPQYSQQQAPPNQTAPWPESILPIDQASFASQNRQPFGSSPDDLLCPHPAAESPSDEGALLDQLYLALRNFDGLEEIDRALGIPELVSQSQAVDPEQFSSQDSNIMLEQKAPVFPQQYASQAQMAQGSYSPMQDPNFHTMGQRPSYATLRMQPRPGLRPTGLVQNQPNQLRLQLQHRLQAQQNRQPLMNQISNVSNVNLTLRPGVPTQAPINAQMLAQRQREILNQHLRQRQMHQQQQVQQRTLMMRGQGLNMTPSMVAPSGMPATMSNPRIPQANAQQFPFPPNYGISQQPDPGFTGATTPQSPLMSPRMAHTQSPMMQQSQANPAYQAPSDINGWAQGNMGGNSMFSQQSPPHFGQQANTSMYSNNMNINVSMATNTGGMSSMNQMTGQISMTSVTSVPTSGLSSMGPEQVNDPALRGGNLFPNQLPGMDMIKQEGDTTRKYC
Type: functional
quantity name: EC50

smi | quantity name | result
Cc1ccc(-c2csc(NC(=O)c3cc([N+](=O)[O-])ccc3N3CCOCC3)n2)cc1 | EC50 | > 79.4 µM (not active)
CC(C)n1c(SCC(=O)NCc2ccco2)nc2c1c(=O)n(C)c(=O)n2C | EC50 | > 79.4 µM (not active)
Cn1c(=O)c(Oc2cc(Cl)cc(Cl)c2)nc2ccccc21 | EC50 | 21.1 µM (not active)
CCOc1ccc(/C=N/n2cc(-c3ccccc3)nc2S)cc1 | EC50 | > 79.4 µM (not active)

----------
Assay: Luminescence Cell-Based Dose Response HTS to Identify Activators of Luciferase Translation or Activity in H4 […] Cells. [Related pubchem assays: 1829 (Project Summary), 1814 (Primary HTS)]
Assay type: functional
The source made the active and inactive calls.
Below, each entry is listed alongside its reported EC50.
quantity name: EC50

molecule | result
COc1ccc2cc(-c3[nH]ncc3CN3CCCCO3)ccc2c1 | 25 µM (active)
CCCc1cc(C(=O)NCC(C)C)no1 | 22.9 µM (active)
COc1ccc(C(=O)/C=C/Sc2nc3ccccc3o2)cc1 | 96.7 µM (active)
c1ccc(C2=NN(c3ccccc3)CC2)cc1 | 0.187 µM (active)
O=c1c2cc(N3CCOCC3)ccc2[nH]c(=S)n1Cc1ccc(Cl)cc1 | 66.7 µM (active)
CC(Cc1cccs1)NC(=O)NC1CCCCC1 (configuration not stated) | 68.9 µM (active)
Cc1c(CCOC(=O)CC23CC4CC(CC(C)(C4)C2)C3)sc[n+]1CC(=O)c1ccccc1 | > 120 µM (not active)

----------
Below, each entry is listed alongside its reported AC50.
Target: DNA repair and recombination protein RAD54-like (Homo sapiens, UniProt Q92698)
Test: inhibitors of human RAD54 branch migration, confirmation, biochemical, fluorescence, cherry-picked samples, dose series (AID 651657)
Assay type: functional
Calls of active or inactive are those of the source.

smi | AC50
CCCN(CCC)CCCNC(=O)c1cc2cc3ccc(OC)cc3nc2o1 | 31.6 µM (active)
O=C(Nc1cccc(Cl)c1)c1cc(S(=O)(=O)N2CCOCC2)cs1 | 30.1 µM (active)
COc1ccc(-c2cc3nc(NCCN4CCCC4)n(C)c(=O)c3s2)cc1OC | 11.6 µM (active)
CN1CCN(c2nc(-c3cccs3)nc3ccccc23)CC1 | 8.93 µM (active)
CCCN(CCC)CCCNC(=S)Nc1ccc2nc(N3CCN(C)CC3)cc(C)c2c1 | 31.9 µM (active)

----------
Target: Fatty acid synthase (Homo sapiens)
Sequence (P49327 whole entry, the tested form may be a part): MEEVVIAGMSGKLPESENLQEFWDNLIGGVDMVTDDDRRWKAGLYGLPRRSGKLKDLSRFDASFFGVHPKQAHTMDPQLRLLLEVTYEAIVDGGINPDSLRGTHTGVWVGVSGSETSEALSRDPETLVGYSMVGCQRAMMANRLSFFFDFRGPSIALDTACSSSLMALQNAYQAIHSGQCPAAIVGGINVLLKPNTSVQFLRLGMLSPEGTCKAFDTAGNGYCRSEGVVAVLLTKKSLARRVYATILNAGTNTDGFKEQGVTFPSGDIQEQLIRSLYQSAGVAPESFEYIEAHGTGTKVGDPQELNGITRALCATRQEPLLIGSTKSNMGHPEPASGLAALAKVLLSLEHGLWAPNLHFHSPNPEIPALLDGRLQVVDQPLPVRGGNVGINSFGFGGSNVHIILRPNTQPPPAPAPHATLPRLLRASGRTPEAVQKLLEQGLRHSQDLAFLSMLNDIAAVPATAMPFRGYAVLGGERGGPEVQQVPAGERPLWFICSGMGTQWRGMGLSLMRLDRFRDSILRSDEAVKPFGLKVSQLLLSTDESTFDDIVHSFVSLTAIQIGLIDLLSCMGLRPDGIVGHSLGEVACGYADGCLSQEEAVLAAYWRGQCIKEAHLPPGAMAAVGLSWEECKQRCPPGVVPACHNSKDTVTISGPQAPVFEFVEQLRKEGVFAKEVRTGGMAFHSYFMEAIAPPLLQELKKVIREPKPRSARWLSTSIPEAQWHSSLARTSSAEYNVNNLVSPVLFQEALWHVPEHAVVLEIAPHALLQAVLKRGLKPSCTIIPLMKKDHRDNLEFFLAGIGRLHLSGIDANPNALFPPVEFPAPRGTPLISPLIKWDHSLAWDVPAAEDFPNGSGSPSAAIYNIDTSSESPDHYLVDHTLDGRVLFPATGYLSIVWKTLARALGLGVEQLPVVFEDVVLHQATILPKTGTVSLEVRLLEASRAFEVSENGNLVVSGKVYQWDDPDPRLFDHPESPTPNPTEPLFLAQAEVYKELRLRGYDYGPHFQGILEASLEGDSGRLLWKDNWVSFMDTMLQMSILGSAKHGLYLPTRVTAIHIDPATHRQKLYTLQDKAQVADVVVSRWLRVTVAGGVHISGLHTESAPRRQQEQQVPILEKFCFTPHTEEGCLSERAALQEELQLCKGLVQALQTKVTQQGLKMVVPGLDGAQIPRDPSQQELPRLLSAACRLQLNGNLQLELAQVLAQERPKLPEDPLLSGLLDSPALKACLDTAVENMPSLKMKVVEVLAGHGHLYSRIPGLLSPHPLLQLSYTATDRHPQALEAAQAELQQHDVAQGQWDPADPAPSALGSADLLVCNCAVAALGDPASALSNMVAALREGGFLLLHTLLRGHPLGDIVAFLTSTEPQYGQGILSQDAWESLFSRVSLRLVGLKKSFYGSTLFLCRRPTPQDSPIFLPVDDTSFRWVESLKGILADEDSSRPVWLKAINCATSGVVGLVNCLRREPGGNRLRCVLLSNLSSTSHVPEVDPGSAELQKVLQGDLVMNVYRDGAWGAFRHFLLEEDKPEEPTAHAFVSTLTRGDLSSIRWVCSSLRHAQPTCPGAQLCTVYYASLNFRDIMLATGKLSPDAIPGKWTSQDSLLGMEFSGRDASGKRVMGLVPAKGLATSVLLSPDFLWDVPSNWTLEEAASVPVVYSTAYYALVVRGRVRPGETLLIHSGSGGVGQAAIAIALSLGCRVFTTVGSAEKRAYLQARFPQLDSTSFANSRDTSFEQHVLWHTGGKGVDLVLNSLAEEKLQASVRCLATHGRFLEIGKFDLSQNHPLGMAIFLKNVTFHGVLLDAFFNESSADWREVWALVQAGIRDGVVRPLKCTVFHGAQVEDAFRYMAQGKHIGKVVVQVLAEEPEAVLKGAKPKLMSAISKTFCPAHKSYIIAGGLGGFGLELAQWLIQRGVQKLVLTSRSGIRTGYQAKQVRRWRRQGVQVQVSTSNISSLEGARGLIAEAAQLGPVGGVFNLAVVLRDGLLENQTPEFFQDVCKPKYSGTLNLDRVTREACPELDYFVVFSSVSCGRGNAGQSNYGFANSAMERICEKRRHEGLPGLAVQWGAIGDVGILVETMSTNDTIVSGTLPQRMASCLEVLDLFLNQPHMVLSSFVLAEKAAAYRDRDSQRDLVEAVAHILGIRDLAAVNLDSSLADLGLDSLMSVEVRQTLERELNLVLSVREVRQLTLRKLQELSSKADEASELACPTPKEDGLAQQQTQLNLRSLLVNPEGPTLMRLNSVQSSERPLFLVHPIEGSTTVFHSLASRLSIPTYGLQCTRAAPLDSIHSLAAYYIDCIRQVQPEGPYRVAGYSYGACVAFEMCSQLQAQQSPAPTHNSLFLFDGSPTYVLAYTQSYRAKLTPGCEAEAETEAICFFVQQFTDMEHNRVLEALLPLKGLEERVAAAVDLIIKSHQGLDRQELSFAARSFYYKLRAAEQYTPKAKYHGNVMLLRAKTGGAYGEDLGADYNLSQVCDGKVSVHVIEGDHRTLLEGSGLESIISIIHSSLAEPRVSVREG
Assay: FAS thioesterase domain inhibitors, dose response, biochemical, kinetic fluorescence intensity (AID 624326);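 further: rate of fluorescence rise from hydrolysis of a fluorogenic O-methyl fluorescein ester substrate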
Assay type: functional
Calls of active or inactive are those of the source.
Classes used: active, inactive

molecule | assigned label
COc1ccc2[nH]c3c(c2c1)CCN1C(=O)C(CC(=O)NCCc2ccccn2)C[C@H](C(=O)N2CCOCC2)[C@@]31CCC1CCCC1 (some centres undefined) | active
CN(c1ccccc1)S(=O)(=O)c1ccc(NC(=O)c2nc(S(C)(=O)=O)ncc2Cl)cc1 | active
O=C1C=C(c2ccc(Cl)c(C(F)(F)F)c2)C[C@@H](c2ccc3c(c2)OCO3)C1 | active
O=C(COc1ncnc2cc([N+](=O)[O-])ccc12)N(CCc1ccccc1)Cc1ccccc1 | inactive

----------
Below, each entry is listed alongside its reported EC50.
Target: Peroxisome proliferator-activated receptor gamma/Nuclear receptor coactivator 3 (Homo sapiens);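 further: agonist potency for raising coactivator recruitment to the receptor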
Type: functional

smi | EC50
CC(C)n1c(SCC(=O)NCc2ccco2)nc2c1c(=O)n(C)c(=O)n2C | > 79.4 µM (not active)
CCOc1ccc(/C=N/n2cc(-c3ccccc3)nc2S)cc1 | > 79.4 µM (not active)
Cc1ccc(-c2csc(NC(=O)c3cc([N+](=O)[O-])ccc3N3CCOCC3)n2)cc1 | > 79.4 µM (not active)
Cn1c(=O)c(Oc2cc(Cl)cc(Cl)c2)nc2ccccc21 | 28.8 µM (not active)

----------
Target: Cytochrome P450 2C9 (Homo sapiens, UniProt P11712)
Sequence (P11712 whole entry): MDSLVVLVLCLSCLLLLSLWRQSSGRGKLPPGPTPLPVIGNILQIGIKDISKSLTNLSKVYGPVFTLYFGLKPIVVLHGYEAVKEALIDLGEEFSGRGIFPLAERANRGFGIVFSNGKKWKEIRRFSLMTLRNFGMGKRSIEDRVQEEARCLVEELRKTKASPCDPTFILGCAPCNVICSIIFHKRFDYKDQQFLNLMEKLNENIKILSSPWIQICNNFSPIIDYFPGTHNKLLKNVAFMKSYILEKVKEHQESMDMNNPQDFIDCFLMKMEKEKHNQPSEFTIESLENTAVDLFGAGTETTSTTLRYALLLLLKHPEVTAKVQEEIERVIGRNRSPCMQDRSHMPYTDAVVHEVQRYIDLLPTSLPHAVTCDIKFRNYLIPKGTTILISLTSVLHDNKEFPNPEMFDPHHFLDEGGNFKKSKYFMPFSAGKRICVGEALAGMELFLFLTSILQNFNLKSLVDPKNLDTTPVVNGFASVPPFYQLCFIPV
Below, each entry is listed alongside its reported AC50.
quantity name: AC50

compound | quantity name | result
CCOC(=O)c1c(-c2ccc(C)cc2)csc1NC(=O)C1CC=CCC1C(=O)O (stereo not given) | AC50 | 25.1 µM (inconclusive)
O=C(c1cnccn1)N1CCC2(CC1)CN(Cc1ccncc1)C2 | AC50 | 31.6 µM (inconclusive)
COc1ccc(C(=O)N2CCC3(CCN(Cc4ccncc4)CC3)CC2)cc1 | AC50 | 7.94 µM (inconclusive)
CC(O)(CS(=O)(=O)Cc1ccc(Cl)cc1)C(=O)Nc1cccc(C(F)(F)F)c1 (stereo not given) | AC50 | 8.91 µM (inconclusive)
COc1ccc(-c2nnc(-c3ccc(OCC(C)C)cc3)o2)cc1 | AC50 | 20 µM (inconclusive)

----------
Target: RNA-binding protein pos-1 (Caenorhabditis elegans)
Sequence (G5EF15 whole entry): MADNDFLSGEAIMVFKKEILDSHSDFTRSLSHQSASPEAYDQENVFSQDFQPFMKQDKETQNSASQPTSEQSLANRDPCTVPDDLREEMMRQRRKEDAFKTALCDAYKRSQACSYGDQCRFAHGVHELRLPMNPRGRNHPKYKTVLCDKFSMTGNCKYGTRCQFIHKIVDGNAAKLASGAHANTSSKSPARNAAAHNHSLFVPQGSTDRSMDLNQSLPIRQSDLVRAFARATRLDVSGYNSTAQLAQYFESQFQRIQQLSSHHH
Experiment: inhibitors of POS-1/mex-3 RNA binding, dose response, biochemical, fluorescence polarization (AID 1964);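 further: purified POS-1 fused to maltose binding protein made in E. coli; potency of compounds blocking POS-1 binding to fluorescent RNA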
Active and inactive are the calls of the source.
quantity name: EC50

compound | target under test | result
Cc1[nH][nH]c(=O)c1C(c1ccc(-c2cccc(C(=O)O)c2)o1)c1c(C)[nH][nH]c1=O | RNA-binding protein pos-1 (Caenorhabditis elegans) | 18.1 µM (active)
Cc1ccc(N2C(=O)/C(=C/c3ccc(CN(CCC#N)S(C)(=O)=O)o3)C(=O)NC2=S)cc1C | RNA-binding protein pos-1 (Caenorhabditis elegans) | 15.5 µM (active)
CCN(CC)C(=O)CSc1nnc2nnc3cc(OC)ccc3n12 | RNA-binding protein pos-1 (Caenorhabditis elegans) | 7.7 µM (active)
O=C(CCN1C(=O)C2CC=C(Cl)CC2C1=O)N1CCCCC1 (stereo not drawn) | RNA-binding protein pos-1 (Caenorhabditis elegans) | 29.5 µM (active)
Cc1cccn2c(=O)c3cc(S(=O)(=O)c4ccccc4)c(=N)n(Cc4cccnc4)c3nc12 | RNA-binding protein pos-1 (Caenorhabditis elegans) | 8.88 µM (inconclusive)
O=C(NNC(=O)c1ccccc1O)c1ccco1 | RNA-binding protein pos-1 (Caenorhabditis elegans) | 24 µM (active)
CN1CCc2cc3c(c4c2[C@H]1[C@H](O)c1ccccc1-4)OCO3 | RNA-binding protein pos-1 (Caenorhabditis elegans) | 11.9 µM (active)
Cc1ccc(S(=O)(=O)N2CCOCC2)cc1NC(=O)CN(C)C1CCS(=O)(=O)C1 (stereo not drawn) | RNA-binding protein pos-1 (Caenorhabditis elegans) | > 300 µM (not active)
